experimental-target: Aromatase (Homo sapiens)
assay-remarks: qHTS assay to identify aromatase inhibitors (AID 743083); further: nearly all actives have a fitted effect of over 55% in size
setup-conditions: MCF-7 aro ERE, testosterone-driven ERE luciferase, 24 h; series mostly up to 70.3 µM
Results filed as inconclusive are left out. The source made the active and inactive calls. The call rests on the fitted dose curve; in most records, active means well fitted inhibition curve with a large enough effect in the repeat runs; inconclusive means weak or mixed curves; inactive means no such curve, though single readings can be large or run the other way.
quantity-measured: Potency

Check out these entries, answers already filled in.
[[record]]
molecule = "c1ccc2cc3c(ccc4ccccc43)cc2c1"
experimental_target = "Aromatase (Homo sapiens)"
quantity_measured = "Potency"
experimental_result = "inactive"

[[record]]
molecule = "O=C(Cl)c1cccc(C(=O)Cl)c1"
experimental_target = "Aromatase (Homo sapiens)"
quantity_measured = "Potency"
experimental_result = "inactive"

[[record]]
molecule = "COc1nc(C)nc(Cl)c1NC1=NCCN1"
experimental_target = "Aromatase (Homo sapiens)"
quantity_measured = "Potency"
experimental_result = "inactive"

[[record]]
molecule = "c1cnc2cc3c(cc2n1)C1CNCC3C1"
experimental_target = "Aromatase (Homo sapiens)"
quantity_measured = "Potency"
experimental_result = "inactive"

[[record]]
molecule = "CC1COC(=O)O1 (configuration not stated)"
experimental_target = "Aromatase (Homo sapiens)"
quantity_measured = "Potency"
experimental_result = "inactive"

[[record]]
molecule = "c1ccc2n[nH]nc2c1"
experimental_target = "Aromatase (Homo sapiens)"
quantity_measured = "Potency"
experimental_result = "inactive"


Measured Potency, "Cc1occc(=O)c1OC(=O)C(C)C" : inactive

Measured Potency, "CCCCN(CCO)CCCC" : inactive

Measured Potency, "C/C=C/c1ccc(OCC)c(O)c1" : inactive

Measured Potency, "Cc1scc2c1N(C(=O)CN1CCN(C)CC1)c1ccccc1NC2=O" : inactive

Measured Potency, "CC(=O)OCCOCCOCCOC(C)=O" : inactive

Measured Potency, "CC(C)(O)CCC(C)(C)O" : inactive

Measured Potency, "CCCOC(=O)c1cc(O)c(O)c(O)c1" : inactive

Measured Potency, c1ccc2c(c1)CCCC2C1=NCCN1 (configuration not stated) : inactive

Measured Potency, CCCNC(C)C(=O)Nc1ccccc1C (configuration not stated) : inactive

Measured Potency, "O=C1OC2(c3ccc(O)cc3Oc3cc(O)ccc32)c2ccccc21" : inactive
